Attribution: the supplement of paper PMC11061612

# System: MOLP-8 (Plasma Cell Myeloma)
# assay_method_text: combination Emax (second highest fraction inhibited in the dose matrix, 72 h); higher = more inhibition; extreme values may be limits of the assay
readout_label: combination Emax
Lab note: jot down the number only; don't add units.

Would you please look over these solved cases?
C[C@@H](c1ccc2nccn2c1)n1nnc2ncc(-c3cnn(C)c3)nc21 [Savolitinib] + CC1(C)CCC(CN2CCN(c3ccc(C(=O)NS(=O)(=O)c4ccc(NCC5CCOCC5)c([N+](=O)[O-])c4)c(Oc4cnc5[nH]ccc5c4)c3)CC2)=C(c2ccc(Cl)cc2)C1 [Venetoclax] (first compound max 1 µM, 7x7, partner max 1 µM) : 0.0876
NC1(C(=O)N[C@@H](CCO)c2ccc(Cl)cc2)CCN(c2ncnc3[nH]ccc23)CC1 [Capivasertib] + Cn1cnc2c(F)c(Nc3ccc(Br)cc3Cl)c(C(=O)NOCCO)cc21 [Selumetinib] (first compound max 10 µM, 7x7, partner max 10 µM) : 0.715
C=CCn1c(=O)c2cnc(Nc3ccc(N4CCN(C)CC4)cc3)nc2n1-c1cccc(C(C)(C)O)n1 [AZD1775] + C[C@@H]1COCCN1C2=NC(=NC(=C2)C3(CC3)[S@](=N)(=O)C)C4=C5C=CNC5=NC=C4 [AZD6738] (first compound max 1 µM, partner max 10 µM) : 0.854

Let's switch to this molecule now.
// query State the recorded combination Emax for this entry: COc1cccc(OCCCN)c1-c1cc(Nc2cnc(C#N)cn2)n[nH]1 [Prexasertib] + O=C(c1cc(Cc2n[nH]c(=O)c3ccccc23)ccc1F)N1CCN(C(=O)C2CC2)CC1 [Olaparib] (first compound max 1 µM, 7x7, partner max 10 µM)
// result 0.882

---

Reported combination Emax values are given for each entry in this list.
# Tested on: CPC-N (Small Cell Lung Carcinoma)
# assay_method_text: combination Emax (second highest fraction inhibited in the dose matrix, 72 h); higher = more inhibition; extreme values may be limits of the assay
Lab note: jot down the number only; don't add units.

// query State the recorded combination Emax for this entry: CCN(CCO)CCCOc1ccc2c(Nc3cc(CC(=O)Nc4cccc(F)c4)[nH]n3)ncnc2c1 [AZD2811] + C=CCn1c(=O)c2cnc(Nc3ccc(N4CCN(C)CC4)cc3)nc2n1-c1cccc(C(C)(C)O)n1 [AZD1775] (first compound max 1 µM, partner max 1 µM)
// result 0.961

// query Lookup Cc1cc2ncnn2cc1Nc1ncc2c(n1)n(C1CCOCC1)c(=O)n2C [AZD7648] + CN(C)CCCOc1ccc(-c2ccc3ncc4c(c3c2)n(C2CCOCC2)c(=O)n4C)cn1 [AZD0156] (first compound max 10 µM, 7x7, partner max 1 µM)
// result 0.368

// query Lookup O=C(c1cc(Cc2n[nH]c(=O)c3ccccc23)ccc1F)N1CCN(C(=O)C2CC2)CC1 [Olaparib] + Cc1c2c(nn1C)CSCc1cc(n(C)n1)CSc1cc(c3ccccc3c1)OCCCc1c(C(=O)O)n(C)c3c-2c(Cl)ccc13 [AZD5991] (first compound max 10 µM, 7x7, partner max 1 µM)
// result 0.215

// query Lookup CN(CCO)CC[C@H](CSc1ccccc1)Nc1ccc(S(=O)(=O)NC(=O)c2ccc(N3CCC([C@@H](O)c4ccccc4-c4ccc(Cl)cc4)CC3)cc2)cc1S(=O)(=O)C(F)(F)F [AZD4320] + C1CN(CCC1(C(=O)N[C@@H](CCO)C2=CC=C(C=C2)Cl)N)C3=NC=NC4=C3C=CN4 [Capivasertib] (first compound max 1 µM, 7x7, partner max 3 µM)
// result 0.945

// query Lookup O=C(c1cc(Cc2n[nH]c(=O)c3ccccc23)ccc1F)N1CCN(C(=O)C2CC2)CC1 [Olaparib] + CC1(C)CCC(CN2CCN(c3ccc(C(=O)NS(=O)(=O)c4ccc(NCC5CCOCC5)c([N+](=O)[O-])c4)c(Oc4cnc5[nH]ccc5c4)c3)CC2)=C(c2ccc(Cl)cc2)C1 [Venetoclax] (first compound max 10 µM, 7x7, partner max 1 µM)
// result 0.166

// query Lookup COc1cc2c(cc1OCCCCCOc1cc3c(cc1OC)C(=O)N1C=C(C)C[C@H]1C=N3)N=C[C@@H]1CC(C)=CN1C2=O [SG3199] + O=C(c1cc(Cc2n[nH]c(=O)c3ccccc23)ccc1F)N1CCN(C(=O)C2CC2)CC1 [Olaparib] (first compound max 0.001 µM, 7x7, partner max 10 µM)
// result 0.243

// query Lookup CS(=O)(=O)CCNCc1ccc(-c2ccc3ncnc(Nc4ccc(OCc5cccc(F)c5)c(Cl)c4)c3c2)o1 [Lapatinib] + NC1(c2ccc(-c3nc4ccn5c(=O)[nH]nc5c4cc3-c3ccccc3)cc2)CCC1 [MK-2206] (first compound max 10 µM, 7x7, partner max 10 µM)
// result 0.847

---

Reported combination Emax values are given for each entry in this list.
# Test system: PA-TU-8988T (Pancreatic Carcinoma)
# assay_method_text: combination Emax (second highest fraction inhibited in the dose matrix, 72 h); higher = more inhibition; extreme values may be limits of the assay
Lab note: jot down the number only; don't add units.

Would you please look over these solved cases?
Cc1c2c(nn1C)CSCc1cc(n(C)n1)CSc1cc(c3ccccc3c1)OCCCc1c(C(=O)O)n(C)c3c-2c(Cl)ccc13 [AZD5991] + CC1(C)CCC(CN2CCN(c3ccc(C(=O)NS(=O)(=O)c4ccc(NCC5CCOCC5)c([N+](=O)[O-])c4)c(Oc4cnc5[nH]ccc5c4)c3)CC2)=C(c2ccc(Cl)cc2)C1 [Venetoclax] (first compound max 1 µM, 7x7, partner max 1 µM) : 0.151
CC(=O)c1c(C)c2cnc(Nc3ccc(N4CCNCC4)cn3)nc2n(C2CCCC2)c1=O [Palbociclib] + Cn1cnc2c(F)c(Nc3ccc(Br)cc3Cl)c(C(=O)NOCCO)cc21 [Selumetinib] (first compound max 10 µM, 7x7, partner max 10 µM) : 0.514

// query State the recorded combination Emax for this entry: COc1nnc2ccc(N3CCC(c4ccc(OCCN5CCN(C)C(=O)[C@H]5C)cc4)CC3)nn12 [AZD5153] + Cc1c2c(nn1C)CSCc1cc(n(C)n1)CSc1cc(c3ccccc3c1)OCCCc1c(C(=O)O)n(C)c3c-2c(Cl)ccc13 [AZD5991] (first compound max 1 µM, 7x7, partner max 1 µM)
// result 0.886

// query Lookup Cc1c2c(nn1C)CSCc1cc(n(C)n1)CSc1cc(c3ccccc3c1)OCCCc1c(C(=O)O)n(C)c3c-2c(Cl)ccc13 [AZD5991] + C[C@@H]1COCCN1C2=NC(=NC(=C2)C3(CC3)[S@](=N)(=O)C)C4=C5C=CNC5=NC=C4 [AZD6738] (first compound max 1 µM, 7x7, partner max 10 µM)
// result 0.345

---

# Tested on: SK-CO-1 (Colorectal Carcinoma)
# assay_method_text: combination Emax (second highest fraction inhibited in the dose matrix, 72 h); higher = more inhibition; extreme values may be limits of the assay
readout_label: combination Emax

Would you please look over these solved cases?
N#Cc1cnc(Nc2cc(NC[C@H]3CNCCO3)c(C(F)(F)F)cn2)cn1 [SRA737] + C=CCn1c(=O)c2cnc(Nc3ccc(N4CCN(C)CC4)cc3)nc2n1-c1cccc(C(C)(C)O)n1 [AZD1775] (first compound max 10 µM, partner max 1 µM) : 0.631
CC1(C)CCC(CN2CCN(c3ccc(C(=O)NS(=O)(=O)c4ccc(NCC5CCOCC5)c([N+](=O)[O-])c4)c(Oc4cnc5[nH]ccc5c4)c3)CC2)=C(c2ccc(Cl)cc2)C1 [Venetoclax] + Cn1cnc2c(F)c(Nc3ccc(Br)cc3Cl)c(C(=O)NOCCO)cc21 [Selumetinib] (first compound max 1 µM, 7x7, partner max 3 µM) : 0.727
O=C(c1cc(Cc2n[nH]c(=O)c3ccccc23)ccc1F)N1CCN(C(=O)C2CC2)CC1 [Olaparib] + CC1(C)CCC(CN2CCN(c3ccc(C(=O)NS(=O)(=O)c4ccc(NCC5CCOCC5)c([N+](=O)[O-])c4)c(Oc4cnc5[nH]ccc5c4)c3)CC2)=C(c2ccc(Cl)cc2)C1 [Venetoclax] (first compound max 10 µM, 7x7, partner max 1 µM) : 0.769

// query State the recorded combination Emax for this entry: Cc1c2c(nn1C)CSCc1cc(n(C)n1)CSc1cc(c3ccccc3c1)OCCCc1c(C(=O)O)n(C)c3c-2c(Cl)ccc13 [AZD5991] + C=CCn1c(=O)c2cnc(Nc3ccc(N4CCN(C)CC4)cc3)nc2n1-c1cccc(C(C)(C)O)n1 [AZD1775] (first compound max 1 µM, partner max 1 µM)
// result 0.517

// query Lookup Cn1cnc2c(F)c(Nc3ccc(Br)cc3Cl)c(C(=O)NOCCO)cc21 [Selumetinib] + C=CCn1c(=O)c2cnc(Nc3ccc(N4CCN(C)CC4)cc3)nc2n1-c1cccc(C(C)(C)O)n1 [AZD1775] (first compound max 10 µM, partner max 1 µM)
// result 0.794

// query Lookup Cc1cc2ncnn2cc1Nc1ncc2c(n1)n(C1CCOCC1)c(=O)n2C [AZD7648] + O=C(c1cc(Cc2n[nH]c(=O)c3ccccc23)ccc1F)N1CCN(C(=O)C2CC2)CC1 [Olaparib] (first compound max 10 µM, 7x7, partner max 10 µM)
// result 0.488

// query Lookup O=C(c1cc(Cc2n[nH]c(=O)c3ccccc23)ccc1F)N1CCN(C(=O)C2CC2)CC1 [Olaparib] + Cc1c2c(nn1C)CSCc1cc(n(C)n1)CSc1cc(c3ccccc3c1)OCCCc1c(C(=O)O)n(C)c3c-2c(Cl)ccc13 [AZD5991] (first compound max 10 µM, 7x7, partner max 1 µM)
// result 0.785
